- experiment.description: Displacement of [3H]DTG from sigma 2 receptor in rat liver membrane
- Format: cell membranes
measured.property: Ki (nM)

[a] COc1cccc2c1CCCC2CCCN1CCN(C2CCCCC2)CC1 (configuration not stated)
[b] O=C(CCCN1CCC(O)(c2ccc(Cl)cc2)CC1)c1ccc(F)cc1
Of a and b , whose reported Ki is numerically smaller? Use the label to indicate which entry you chose.
a

* * *

- target.desc: Sigma non-opioid intracellular receptor 1 (Rattus norvegicus, UniProt Q9R0C9)
- Sequence (Q9R0C9 whole entry): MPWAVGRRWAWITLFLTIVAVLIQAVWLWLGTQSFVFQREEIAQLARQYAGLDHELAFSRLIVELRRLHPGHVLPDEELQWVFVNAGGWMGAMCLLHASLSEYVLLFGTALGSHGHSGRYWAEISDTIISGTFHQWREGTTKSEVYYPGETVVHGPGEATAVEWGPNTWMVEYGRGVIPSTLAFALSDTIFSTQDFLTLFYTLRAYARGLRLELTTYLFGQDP
- experiment.description: Binding affinity to sigma 1 receptor in rat liver membrane
measured.property: pKi
pKi here: minus log base 10 of the concentration, concentration in moles per litre.

Recorded pKi for [3H]C1CCCCC1([3H])N1CCN(CCCC2CCCc3c(OC)cccc32)CC1 (stereo unspecified) with Sigma non-opioid intracellular receptor 1 (Rattus norvegicus, UniProt Q9R0C9), please?
7.87

* * *

- experiment.description: Displacement of [3H]PB28 from sigma 2 receptor in rat liver membrane
- Format: cell membranes
measured.property: Ki (nM)

[P] COc1cccc2c1CCCC2CCCN1CCN(C2CCCCC2)CC1 (stereo not drawn)
[Q] Cc1ccccc1NC(=N)Nc1ccccc1C
[R] O=C(CCCN1CCC(O)(c2ccc(Cl)cc2)CC1)c1ccc(F)cc1
// rank the listed molecules by Ki, lowest value first Write the labels, ordered according to the request.
P, R, Q
(P: 0.57 nM, R: 5.85 nM, Q: 42 nM)
